Entry source: ChEMBL document CHEMBL1201862

System: A498
ASSAY PROCEDURE: NCI tumour cell line growth inhibition, 48 h
Active and inactive are the calls of the source. Cut-off read from the data, not from the text of the source: active = GI50 up to about 1.1 µM and inactive = higher.
Respond only with the outcome that fits, drawn from label 1 = active, label 0 = inactive

Example cases with answers are listed next.
>>> df
                                   molecule  target_of_assay  class_name
0   O=c1cc(N2CCOCC2)[nH]c(=O)n1-c1ccc(F)cc1             A498     label 0
1  O=c1oc2ccc3ccccc3c2cc1-c1nnc(-c2ccc([N+](=O)[O-])cc2)[nH]1             A498     label 0
2  COC(=O)C1(O)C(c2ccccc2)=NC2(C)CCCC21 (stereo not given)             A498     label 0
3  CC1=C(C#N)c2nc3ccccc3n2C(=O)C1(C)CCO (stereo not given)             A498     label 0

Hey, what did the test say about "CC1=NN(C(=O)c2ccccc2O)C(=O)/C1=C/c1ccc([N+](=O)[O-])cc1" ? label 1

Also "O=C(O)CNCCc1ccccc1" , if possible. label 0

Also "COc1ccc(C(=O)N=C2N(c3ccccc3)C(=N/c3ccccc3)/C(=N\c3ccccc3)N2c2ccccc2)cc1" , if possible. label 0

Also "c1ccc([P+](CCC[P+](c2ccccc2)(c2ccccc2)c2ccccc2)(c2ccccc2)c2ccccc2)cc1" , if possible. label 0

Also "Cc1cccc(NC(=O)Cc2nc3ccccc3s2)c1C" , if possible. label 0

Also "C[C@@H](C(=O)O)c1ccc(-c2ccccc2)c(F)c1" , if possible. label 0

* * *

GI50 values by entry
Test system: HCT-15

These solved cases illustrate the format of a correct answer.
In [3]: df
Out[3]:
                                   molecule  value_reported
0                     Cc1cc(C)cc(NC(N)=S)c1         17.9 µM
1              CN1CCCN(C)CCCN(C)CCCN(C)CCC1        > 100 µM
2  COc1ccc2nc3cc(Cl)ccc3c(Sc3ccc([N+](=O)[O-])cc3)c2c1         > 10 µM
3  NC(=O)C(c1ccccc1)N1OC2C(=O)N(c3cccc4ccccc34)C(=O)C2C1c1c2ccccc2c(Cl)c2ccccc12 (stereo not given)         4.21 µM
4     Cc1cc2c(C)nn(Cc3ccccc3)c2c(C(N)=O)c1C        > 100 µM

Query: GI50; subject: "CC1(C)O[C@H]2Cn3c(c(C#N)c4ccccc43)[C@H]2O1" > 100 µM

Also CCCCCC(/C=C/[C@@H]1CC(=O)C[C@H]1O[Si](C)(C)C(C)(C)C)OCOCCOC (stereo not given in full) , if possible. 3.86 µM

* * *

Test system: HCT-116
ASSAY PROCEDURE: NCI tumour cell line growth inhibition, 48 h
Activity calls are given as the source filed them. Rule as the data show it: active = GI50 up to about 1.1 µM and inactive = higher.
PROPERTY: GI50

>>> df
                                   compound  property       value_reported
0  CCOC(=O)C12CCC(=O)C=C1[C@@H](C)C(=O)CC2 (stereo partly specified)      GI50  > 100 µM (inactive)
1     Cc1c2c(c(C)c3c1[nH]c1ccccc13)CN(C)CC2      GI50     16 µM (inactive)
2              Cc1ccnc(NC(=S)Nc2ccccc2Cl)c1      GI50  > 100 µM (inactive)
3  CCOP(=O)(OCC)C(C)(CC)N/C(N)=N/C#N (stereo unspecified)      GI50  > 100 µM (inactive)
4  N/C(=N/O)c1cn(C2OC(CO)C(O)C2O)c2ncnc(NO)c12 (stereo unspecified)      GI50   0.0337 µM (active)
5  COc1ccc(-c2c(C(C)=O)c(C)n(C3OC(CO)C(O)C(O)C3O)c(=S)c2C#N)cc1 (stereo unspecified)      GI50   86.9 µM (inactive)
6  Cc1ccc(NC(=O)CCc2nnc3s/c(=C\C=C\c4ccccc4)c(=O)n23)cc1      GI50  > 100 µM (inactive)
7                  C#CCNC(=O)ON1C(=O)CCC1=O      GI50  > 100 µM (inactive)
8  COc1cc(/C=C2\C(=O)N(c3cccc([N+](=O)[O-])c3)C(c3ccccc3)S2(=O)=O)cc(OC)c1OC (stereo unspecified)      GI50  > 100 µM (inactive)
9  CCOC(=O)NNC(=O)NCc1ccccc1CNC(=O)NNC(=O)OCC      GI50  > 100 µM (inactive)

The record that follows has no GI50 shown yet.
Hi! What's the reported GI50 for "CCc1nnc(CC)n1-n1c(Cc2ccccc2)n[nH]c1=O" on HCT-116? > 100 µM (inactive)
